study.target: UniProt E9Q4X7
Sequence (E9Q4X7 as listed by the source): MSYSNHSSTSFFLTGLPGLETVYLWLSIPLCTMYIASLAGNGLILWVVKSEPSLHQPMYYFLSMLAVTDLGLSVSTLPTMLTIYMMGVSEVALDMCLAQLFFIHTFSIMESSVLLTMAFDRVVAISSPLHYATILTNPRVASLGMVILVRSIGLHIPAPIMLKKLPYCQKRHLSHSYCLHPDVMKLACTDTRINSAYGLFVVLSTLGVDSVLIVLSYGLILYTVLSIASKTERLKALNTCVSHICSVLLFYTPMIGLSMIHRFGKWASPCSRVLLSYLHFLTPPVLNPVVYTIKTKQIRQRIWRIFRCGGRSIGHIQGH
experimental.parameters: stereoisomer not certain
In this exercise, the only acceptable responses are active, inactive

Check out these entries, answers already filled in.
- compound: "CCCCCC(C=O)=Cc1ccccc1"
  qualitative.label: "inactive"
- compound: "C=CC(=C)CCC=C(C)C"
  qualitative.label: "inactive"
- compound: "COc1cc(C(=O)O)ccc1O"
  qualitative.label: "active"
- compound: "CCSCC"
  qualitative.label: "inactive"
- compound: "CCCCCOC(=O)CC"
  qualitative.label: "inactive"

Request: Check the results log: what was the call for COc1nccnc1C(C)C ?
Result: inactive

Request: Can you handle CCCCC(=O)CC next?
Result: inactive

Request: Can you handle CC1CCC(C(C)C)C(=O)C1 (stereo not drawn) next?
Result: inactive
